# Selectivity* (anti-target IC50)/(target IC50) values compiled below
Molecular target: yeast (Saccharomyces cerevisiae, UniProt P00163)
Construct: Mitochondrial membranes were prepared from yeast; endogenous in cells; host or cells: yeast (mitochondrial membranes)
Assay: IC50 values and selectivity of Table 10A (target yeast, anti-target human cytochrome)
Assay type: biochemical
Conditions: target yeast, anti-target human cytochrome
experimental_readout: Selectivity* (anti-target IC50)/(target IC50)

# smiles_string, assayed_target, reported_result
measured = [
    ("COC(=O)Cn1nc(-c2cccc(F)c2F)c2ccccc21", "yeast (Saccharomyces cerevisiae, UniProt P00163)", 32),
    ("COC(=O)Cn1nc(-c2cccc(C(F)(F)F)c2)c2ccccc21", "yeast (Saccharomyces cerevisiae, UniProt P00163)", 200),
    ("COC(=O)Cn1nc(-c2c(F)cccc2F)c2ccccc21", "yeast (Saccharomyces cerevisiae, UniProt P00163)", 32),
    ("COC(=O)Cn1nc(-c2cccc(OCc3ccccc3)c2)c2ccccc21", "yeast (Saccharomyces cerevisiae, UniProt P00163)", 8),
    ("COC(=O)Cn1nc(-c2ccccc2)c2cc(C(F)(F)F)ccc21", "yeast (Saccharomyces cerevisiae, UniProt P00163)", 3),
    ("Cn1nnc(Cn2nc(-c3ccccc3)c3ccccc32)n1", "yeast (Saccharomyces cerevisiae, UniProt P00163)", 32),
    ("COC(=O)Cn1nc(-c2cc(C(F)(F)F)ccc2F)c2ccccc21", "yeast (Saccharomyces cerevisiae, UniProt P00163)", 200),
    ("Cn1nnc(Cn2nc(-c3cc(C(F)(F)F)ccc3F)c3ccccc32)n1", "yeast (Saccharomyces cerevisiae, UniProt P00163)", 48),
    ("COC(=O)Cn1nc(-c2cccc(OCCC34CC5CC(CC(C5)C3)C4)c2)c2ccccc21", "yeast (Saccharomyces cerevisiae, UniProt P00163)", 20),
    ("COC(=O)Cn1nc(-c2cccs2)c2ccccc21", "yeast (Saccharomyces cerevisiae, UniProt P00163)", 32),
    ("Cc1cccc2c(-c3cc(C(F)(F)F)ccc3F)nn(Cc3cnccn3)c12", "yeast (Saccharomyces cerevisiae, UniProt P00163)", 320),
]

* * *

# fraction unbound values compiled below
Assay: Plasma protein binding
Conditions: human, plasma

# smiles_string, readout_qualifier, fraction unbound
records = [
    ("CCOC(=O)c1c2ccccc2nn1Cc1ccc(Cl)cc1", "<", 0.01),
    ("FC(F)(F)c1ccc(-c2n[nH]c3ccccc23)cc1", "<", 0.01),
    ("O=C(O)c1c2ccccc2nn1Cc1ccc(Cl)cc1", "<", 0.01),
    ("COC(=O)Cn1nc(-c2cccc(OC)c2)c2ccccc21", "=", 0.05),
    ("COc1ccc(-c2n[nH]c3ccccc23)cc1", "=", 0.02),
    ("COC(=O)Cn1nc(-c2ccccc2)c2cccc(C(F)(F)F)c21", "<", 0.01),
    ("COC(=O)Cn1c(-c2ccccc2)nc2ccccc21", "=", 0.05),
    ("O=C(Cn1nc(C(=O)N2CCCCC2)c2ccccc21)N1CCOCC1", "=", 0.48),
    ("CCCNC(=O)Cn1nc(-c2ccccc2)c2cc(Cl)ccc21", "<", 0.01),
    ("O=C(O)c1nn(Cc2ccc(Cl)cc2)c2ccccc12", "<", 0.01),
    ("CCOC(=O)c1nn(Cc2ccc(Cl)cc2)c2ccccc12", "<", 0.01),
    ("O=C(Cn1nc(-c2ccccc2)c2cc(Cl)ccc21)N1CCOCC1", "=", 0.04),
]

* * *

Experiment: Plasma stability
Conditions: % remaining in human plasma after a 5-hour incubation

# molecule, Plasma Stability
measured = [
    ("O=C(O)Cn1nc(-c2ccccc2)c2ccccc21", "> 99%"),
    ("COC(=O)Cn1ncc2ccccc21", "< 1.0%"),
    ("COC(=O)C(C)(C)n1nc(-c2ccccc2)c2ccccc21", "63%"),
    ("COC(=O)Cn1nc(-c2ccccc2OC)c2ccccc21", "< 1.0%"),
    ("CCC(=O)Cn1nc(-c2ccccc2)c2ccccc21", "98%"),
    ("COC(=O)Cn1nc(I)c2ccccc21", "1.3%"),
    ("COC(=O)Cn1nc(-c2cccc(OC)c2)c2ccccc21 [Compound 49835877]", "2.6%"),
    ("COC(=O)Cn1nc(-c2cccc(F)c2)c2ccccc21", "< 1.0%"),
    ("CC(C)(C)OC(=O)Cn1nc(-c2ccccc2)c2ccccc21", "85%"),
    ("CCCCn1nc(-c2ccccc2)c2ccccc21", "81%"),
    ("CCOC(=O)c1c2ccccc2nn1Cc1ccc(Cl)cc1", "70%"),
    ("COc1ccc(-c2n[nH]c3ccccc23)cc1", "89%"),
]

* * *

# Selectivity* (anti-target IC50)/(target IC50) values compiled below
Molecular target: yeast (Saccharomyces cerevisiae)
Construct: Mitochondrial membranes were prepared from yeast; endogenous in cells; host or cells: yeast (mitochondrial membranes)
Test: IC50 values and selectivity of Table 10A (target yeast, anti-target human cytochrome)
Type: biochemical
Conditions: target yeast, anti-target human cytochrome
experimental_readout: Selectivity* (anti-target IC50)/(target IC50)

# smiles_string, reported_result
records = [
    ("COC(=O)Cn1nc(-c2cc(F)ccc2C)c2ccccc21", 40),
    ("Cc1cc(Cn2nc(-c3ccccc3)c3ccccc32)on1", ">5"),
    ("c1ccc(-c2nn(Cc3c[nH]nn3)c3ccccc23)cc1", ">6"),
]

* * *

Target: yeast (Saccharomyces cerevisiae)
Construct: Mitochondrial membranes were prepared from yeast; endogenous in cells; host or cells: yeast (mitochondrial membranes)
Experiment: IC50 values and selectivity of Table 10A (target yeast, anti-target human cytochrome)
Format: biochemical
Details: target yeast, anti-target human cytochrome
# Selectivity* (anti-target IC50)/(target IC50) values compiled below
experimental_readout: Selectivity* (anti-target IC50)/(target IC50)

# smiles_string, reported_result
rows = [
    ("Cn1cc(Cn2nc(-c3ccccc3)c3ccccc32)nn1", ">4"),
    ("Cc1nc(Cn2nc(-c3ccccc3)c3ccccc32)no1", ">32"),
    ("Cc1nnc(Cn2nc(-c3ccccc3)c3ccccc32)o1", ">32"),
]
